B1: H2-Kb / Ed8 (parent complex)
chain 1: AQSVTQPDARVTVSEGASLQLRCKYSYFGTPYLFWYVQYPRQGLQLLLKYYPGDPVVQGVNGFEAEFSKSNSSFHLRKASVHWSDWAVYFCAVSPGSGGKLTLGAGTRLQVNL
chain 2: DSGVVQSPRHIIKEKGGRSVLTCIPISGHSNVVWYQQTLGKELKFLIQHYEKVERDKGFLPSRFSVQQFDDYHSEMNMSALELEDSAMYFCASSPRASNYTFGSGTRLLVI
chain 3: not shown
chain 4: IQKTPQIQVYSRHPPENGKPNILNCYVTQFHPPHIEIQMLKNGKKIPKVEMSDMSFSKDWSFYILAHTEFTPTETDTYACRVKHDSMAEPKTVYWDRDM
chain 5: SIINFEKL

# Variants of: B1
# protocol notes: % of reporter cells activated (NFAT-GFP), raw; further: test concentration or dose not given here
endpoint: ratio to parent

mutation code | ratio to parent
chain 5 N4A | 0.255
chain 5 K7C | 0.326
chain 5 K7A | 0.643
chain 5 I2M | 1.2
chain 5 L8Y | 1.16
chain 5 I2R | 1.16
chain 5 E6G | 1.04
chain 5 F5L | 1.41
chain 5 E6S | 0.349
chain 5 I3F | 0.98

[1] chain 5 E6P
[2] chain 5 F5M
[3] chain 5 N4F
[4] chain 5 E6Y
[5] chain 5 N4Q
Arrange the 5 entries by ratio to parent so the values rise. Reply format: the labels, ordered as requested.
5, 3, 1, 4, 2

[I] chain 5 N4E
[II] chain 5 F5N
[III] chain 5 E6C
[IV] chain 5 E6A
Arrange the 4 entries by ratio to parent so the values rise. Reply format: the labels, ordered as requested.
III, I, IV, II
(III: 0.0436, I: 0.336, IV: 0.678, II: 1.1)
